Tested on: normal NK cells expanded with K562-aAPC
Assay details: percent inhibition of viability; higher = more inhibition
Test settings: 72 h; IL-2 2.5 ng/mL; 1000 nM
For each of the compounds below, state its percent inhibition of viability.
Number in %, nothing else.

Query string: Answer with the recorded percent inhibition of viability of CNC(=O)c1ccc(-c2cnc3ncc(Cc4ccc5ncccc5c4)n3n2)cc1F [NVP-INC280] (max concentration tested 1000 nM) only.
Result string: 9.59

Query string: Write down percent inhibition of viability measured for item Cc1cc(C)c(/C=C2\C(=O)Nc3ccccc32)[nH]1 [Semaxanib] (max concentration tested 10000 nM)
Result string: -2.28

Query string: Give a short answer stating reported percent inhibition of viability for C=C1C[C@@H]2[C@H](CC[C@]3(C)C(=O)CC[C@@H]23)[C@@]2(C)C=CC(=O)C=C12 [Exemestane] (max concentration tested 10000 nM) .
Result string: 12.7

Query string: Kindly indicate its recorded percent inhibition of viability. Item: C[C@@]1(C(=O)Nc2ccc(F)nc2)CCCN1c1nc(Nc2cc(C3CC3)n[nH]2)c2cccn2n1 (max concentration tested 10000 nM)
Result string: 45.5

====

System: DERL-7 (IL-2 2.5 ng/mL);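 further: normalised to DMSO-only wells as negative and benzethonium chloride as positive control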
Assay details: percent inhibition of viability; higher = more inhibition
Test settings: 72 h; 2.5 nM
Please respond with reported percent inhibition of viability for every item in the list.
Could you kindly put the unit after your number?

Query string: Return percent inhibition of viability (reported value) for this compound: Cn1cc(-c2cnn3c(N)c(Br)c([C@@H]4CCCNC4)nc23)cn1 [MK-8776] (max concentration tested 2500 nM)
Result string: -3.5%

Query string: Look up and state reported percent inhibition of viability for CC(=O)Nc1cccc(-n2c(=O)n(C3CC3)c(=O)c3c(Nc4ccc(I)cc4F)n(C)c(=O)c(C)c32)c1 [Trametinib] (max concentration tested 250 nM)
Result string: 24.3%

Query string: Quick one: give measured percent inhibition of viability for CC(C)(O)CC(=O)NCCn1ccc2ncnc(Nc3ccc(Oc4cccc(C(F)(F)F)c4)c(Cl)c3)c21 [TAK-285] (max concentration tested 2500 nM)
Result string: -0.5%

Query string: For the compound CCOc1ccn(-c2ccc(F)cc2)c(=O)c1C(=O)Nc1ccc(Oc2ccnc(N)c2Cl)c(F)c1 (max concentration tested 2500 nM) , give its reported percent inhibition of viability.
Result string: 6.06%

====

Test system: DERL-7 (IL-2 2.5 ng/mL);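 further: normalised to DMSO-only wells as negative and benzethonium chloride as positive control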
Assay details: percent inhibition of viability; higher = more inhibition
Test settings: 72 h; 1000 nM
Threshold check on percent inhibition of viability: strictly below 10% is yes; on or above 10% is no.

Query string: hey, is percent inhibition of viability for C[C@]1(c2nc3c(C(N)=O)cccc3[nH]2)CCCN1 [Veliparib] (max concentration tested 10000 nM) lower than 10% or not?
Result string: yes

Query string: Strictly below 10%: is that where percent inhibition of viability of CC(=O)O[C@@]12CO[C@@H]1C[C@H](O)[C@@]1(C)C(=O)[C@H](O)C3=C(C)[C@@H](OC(=O)[C@H](O)[C@@H](NC(=O)OC(C)(C)C)c4ccccc4)C[C@@](O)([C@@H](OC(=O)c4ccccc4)[C@H]21)C3(C)C [Docetaxel] (max concentration tested 1000 nM) sits?
Result string: no

Query string: API: query returns whether the compound falls strictly under 10% in percent inhibition of viability. Query: CN1CCC(CNc2ccc3ncc(-c4cccc(OC(F)(F)F)c4)n3n2)CC1 [SGI-1776] (max concentration tested 10000 nM)
Result string: no

Query string: Dear colleague, could you confirm whether percent inhibition of viability of CCc1cc2c(cc1N1CCC(N3CCOCC3)CC1)C(C)(C)c1[nH]c3cc(C#N)ccc3c1C2=O [Alectinib] (max concentration tested 1000 nM) falls below 10%? Thanks.
Result string: no

Query string: Quick check: percent inhibition of viability of C=CCc1cccc(/C=N/NC(=O)CN2CCN(Cc3ccccc3)CC2)c1O [PAC-1] (max concentration tested 10000 nM) under 10%?
Result string: no
